Measured melting point, listed per entry.

Reference set, count: 5
{"compound": "COC1=C(OC)C(=O)C(Cc2ccc(OCc3cccnc3)c(C(=O)Nc3ccc(C(F)(F)F)cc3)c2)=C(C)C1=O [Example 172]", "melting point": "173 to 176 °C"}
{"compound": "COC1=C(OC)C(=O)C(Cc2cccc(C(=O)Nc3ccc(Cl)cc3Cl)c2O)=C(C)C1=O [Example 177]", "melting point": "147 to 150 °C"}
{"compound": "COC1=C(OC)C(=O)C(Cc2ccc(C(=O)Nc3cccnc3Cl)c(OC(C)=O)c2)=C(C)C1=O [Example 132]", "melting point": "113.5 to 115.1 °C"}
{"compound": "COC1=C(OC)C(=O)C(Cc2ccc(O)c(C(=O)Nc3ccc(OC)nc3OC)c2)=C(C)C1=O [Example 183]", "melting point": "119 to 121.5 °C"}
{"compound": "COC1=C(OC)C(=O)C(Cc2ccc(O)c(C(=O)Nc3cccnc3N3CCOCC3)c2)=C(C)C1=O [Example 223]", "melting point": "210 to 212.5 °C"}

Looking up COC1=C(OC)C(=O)C(Cc2ccc(O)c(C(=O)NC3CC3)c2)=C(C)C1=O [Example 160] , I found its melting point recorded as 111 to 112 °C

// field: melting point; key: COC1=C(OC)C(=O)C(Cc2ccc(O)c(C(=O)Nc3ccc(C(=O)OC(C)(C)C)cc3)c2)=C(C)C1=O [Example 214] ; value = 200.5 to 202 °C

// melting point value for COC1=C(OC)C(=O)C(Cc2ccc(OCc3cccnc3)c(C(=O)NC3CCCCC3)c2)=C(C)C1=O [Example 171] : 115 to 118 °C

Data point: COC1=C(OC)C(=O)C(Cc2ccc(O)c(C(=O)Nc3ccc(Cl)nc3)c2)=C(C)C1=O [Example 185] ; melting point = 166 to 169 °C

Documented melting point of COC1=C(OC)C(=O)C(Cc2ccc(OC(C)=O)c(C(=O)Nc3ccc(OC)nc3)c2)=C(C)C1=O [Example 180] : 104.5 to 107.5 °C

COC1=C(OC)C(=O)C(Cc2ccc(O)c(C(=O)Nc3ccc(C(=O)O)cn3)c2)=C(C)C1=O [Example 198] has a reported melting point of 238 to 241 °C

Recorded melting point (compound COC1=C(OC)C(=O)C(Cc2ccc(O)c(C(=O)Nc3cc(OC)ncn3)c2)=C(C)C1=O [Example 229] ): 209.5 to 211.5 °C

Memo: COC1=C(OC)C(=O)C(Cc2cccc(C(=O)Nc3ccc(C(F)(F)F)cc3)c2OC(C)=O)=C(C)C1=O [Example 165] , reported melting point: 163 to 166 °C

Item: COC1=C(OC)C(=O)C(Cc2ccc(OC(C)=O)c(C(=O)Nc3cc(OC)ccc3OC)c2)=C(C)C1=O [Example 219] | melting point: 118.5 to 120 °C

Recorded result, COC1=C(OC)C(=O)C(Cc2ccc(O)c(C(=O)Nc3c(Cl)cc(OC(F)(F)F)cc3Cl)c2)=C(C)C1=O [Example 192] , melting point: 138 to 141 °C

###

measureName: melting point

{"compound": "COC1=C(OC)C(=O)C(Cc2ccc(OC(C)=O)c(C(=O)Nc3ccccc3[N+](=O)[O-])c2)=C(C)C1=O [Example 153]", "recordedMeasurement": "97.5 to 100 °C"}
{"compound": "COC1=C(OC)C(=O)C(Cc2ccc(OC(C)=O)c(C(=O)Nc3ccc(S(=O)(=O)C(F)(F)F)cc3)c2)=C(C)C1=O [Example 173]", "recordedMeasurement": "84.5 to 87 °C"}
{"compound": "COC1=C(OC)C(=O)C(Cc2ccc(O)c(C(=O)Nc3ccccc3[N+](=O)[O-])c2)=C(C)C1=O [Example 154]", "recordedMeasurement": "155 to 156 °C"}
{"compound": "COC1=C(OC)C(=O)C(Cc2cccc(C(=O)Nc3ccc(N4CCOCC4)cc3)c2O)=C(C)C1=O [Example 179]", "recordedMeasurement": "177.5 to 180.5 °C"}

Now consider the entry below.
Reported melting point for CC1=C(C)C(=O)C(Cc2ccc(O)c(C(=O)Nc3cccnc3Cl)c2)=C(C)C1=O [Example 237] was 199 to 201 °C
